test.protocol: Quantitative highthroughput screen to assess conditional lethalithy of NOMO1 cells grown in RPMI1640 with dialyzed fetal bovine serum (RPMI+ds) (AID 1963877); note: nearly all actives have a fitted effect of over 30% in size;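 for viability: 100% = DMSO control wells and 0% = empty wells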
condition.context: NOMO1 in RPMI+dialyzed FBS viability, ATP luminescence, 48 h; series mostly up to 45.8 µM
Inconclusive results are not listed. Calls of active or inactive are those of the source. Calls come from the whole dose curve; as a rule, active = well fitted cell-killing curve with a large enough effect; inconclusive = small, poorly fitted or top-dose-only effect; inactive = flat fitted curve, though single readings scatter.
Form entry, call: pick from active, inactive

Use these answered entries as a reference point.
[[record]]
compound = "Cc1csc(NC(=O)c2sc3nc4c(c(C(F)(F)F)c3c2N)CCC4)n1"
qualitative_label = "inactive"

[[record]]
compound = "CC(C)C[C@H](NC(=O)[C@H](CCc1ccccc1)NC(=O)CN1CCOCC1)C(=O)N[C@@H](Cc1ccccc1)C(=O)N[C@@H](CC(C)C)C(=O)[C@@]1(C)CO1"
qualitative_label = "active"

[[record]]
compound = "COc1ccc2cccc(CCNC(C)=O)c2c1"
qualitative_label = "inactive"


query: How did this test come out for `COc1cc(NCc2ccc3nc(N)nc(N)c3c2C)cc(OC)c1OC` ?
result: active

query: How did this test come out for `Cc1cccc(Nc2ccncc2S(=O)(=O)NC(=O)NC(C)C)c1` ?
result: inactive

====

test.protocol: Viability qHTS for spleen associated tyrosine kinase inhibitor (SYKi) drug resistant MV4-11 cells (AID 1963824); note: nearly all actives have a fitted effect of over 35% in size
condition.context: SYKi-resistant MV4-11 viability, CellTiter-Glo, 72 h; series mostly up to 45 µM
Results filed as inconclusive are left out. Active and inactive are the calls of the source. Calls follow the shape of the dose curve; as a rule, active = well fitted cell-killing curve with a large enough effect; inconclusive = small, poorly fitted or top-dose-only effect, or effect the other way; inactive = no such curve, though single readings can be large or run the other way.
Form entry, call: pick from active, inactive

Use these answered entries as a reference point.
[[record]]
compound = "CC(=O)OCC(=O)O[C@@H]1[C@H]2[C@@H](OC(=O)c3ccccc3)[C@@H](C)C[C@]2(O)[C@H](OC(C)=O)C2(C)[C@H]3CC(C)(C)C(=O)[C@@H]3CC1(OC(C)=O)[C@@H]2OC(C)=O (stereo not given in full)"
qualitative_label = "inactive"

[[record]]
compound = "CC(=O)c1ccc(O[C@@H]2O[C@H](CO)[C@@H](O)[C@H](O)[C@H]2O)cc1"
qualitative_label = "inactive"

[[record]]
compound = "COC(CCc1ccc(O)cc1)CC(=O)CCc1ccc(O)cc1 (stereo not given)"
qualitative_label = "active"

[[record]]
compound = "CC(C)n1cc(-c2ccc3c(c2)N(C)CC3)c2c(NS(=O)(=O)c3ccn(C)n3)ccnc21"
qualitative_label = "active"


query: How did this test come out for `CCCCCCNC(=O)n1cc(F)c(=O)[nH]c1=O` ?
result: active

====

Listed below: activity (max response) values for each entry.
test.protocol: Cellular viability qHTS for adrenocortical cancer (ACC) cell line SW-13 (AID 1963989);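 note: cells grown in serum-free medium with ITS supplement; % is set by controls: 0 for no effect and ±100 for the full control effect; nearly all actives have a fitted effect of over 65% in size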
condition.context: SW-13 ACC cells viability, CellTiter-Glo, 48 h; stronger effect = lower value
Results filed as inconclusive are left out.
Your answer is read as %, so omit the unit and give the number.

These recorded examples may help you get a feel for the data.
[[record]]
molecule = "COc1cc2c(cc1OC)C(=O)C(CC1CCN(Cc3ccccc3)CC1)C2 (configuration not stated)"
units_of_measure = "%"
experimental_value = -16.2

[[record]]
molecule = "Nc1ccncc1N"
units_of_measure = "%"
experimental_value = -0.994

[[record]]
molecule = "CCCCOCCOc1nc(-c2ccc(C(=O)O)c(F)c2)sc1C"
units_of_measure = "%"
experimental_value = -9.17


query: Query: activity (max response); subject: `Cn1cc(-c2nc(N[C@@H]3CCCC[C@@H]3N)c(F)c3c2C(=O)NC3)cn1`
result: 8.72

query: Query: activity (max response); subject: `Cc1ccc(C(C)C)c(O)c1`
result: 10.4

query: Query: activity (max response); subject: `CC1(C)O[C@@H]2C[C@H]3[C@@H]4CCC5=CC(=O)C=C[C@]5(C)[C@@H]4[C@@H](O)C[C@]3(C)[C@]2(C(=O)CO)O1`
result: -5.21

query: Query: activity (max response); subject: `CC(C)(C)c1nnc(NS(=O)(=O)c2ccc(N)cc2)s1`
result: -5.75

====

test.protocol: Viability qHTS for spleen associated tyrosine kinase inhibitor (SYKi) drug resistant MV4-11 cells (AID 1963824); note: nearly all actives have a fitted effect of over 35% in size; note: potency is the fitted concentration of half-maximal effect
condition.context: SYKi-resistant MV4-11 viability, CellTiter-Glo, 72 h; series mostly up to 45 µM
Records with an inconclusive call do not appear. Activity calls are given as the source filed them. Calls follow the shape of the dose curve; as a rule, active = well fitted cell-killing curve with a large enough effect; inconclusive = small, poorly fitted or top-dose-only effect, or effect the other way; inactive = no such curve, though single readings can be large or run the other way.
measured.parameter: Potency

These recorded examples may help you get a feel for the data.
[[record]]
given_smiles = "Cc1ccc(NS(=O)(=O)c2cc3c(cc2N[C@@H](C)CO)NC(=O)CC3)cc1C"
experimental_value = "20.6 µM (active)"

[[record]]
given_smiles = "COc1cc(CCc2ccc(OCC=C(C)C)cc2)cc(OC)c1OC"
experimental_value = "5.7 µM (active)"

[[record]]
given_smiles = "COc1cc(/C=C/C(N)=O)cc(OC)c1OC"
experimental_value = "inactive"

[[record]]
given_smiles = "CCOC(=O)N1CCC(N2CCC[C@@H](NC(=O)c3ccccc3C)C2)CC1"
experimental_value = "14.6 µM (active)"


query: Query: Potency; subject: `CN(C)/C(N)=N/C(=N)N`
result: inactive

====

test.protocol: Viability qHTS for spleen associated tyrosine kinase inhibitor (SYKi) naive MV4-11 cells (AID 1963823); note: nearly all actives have a fitted effect of over 40% in size; note: potency is the fitted concentration of half-maximal effect
condition.context: MV4-11 AML viability, CellTiter-Glo luminescence, 72 h; series mostly up to 45 µM
Protocol: Department of Medicine, Hematology/Oncology University Hospital Frankfurt, Germany. Trials have shown promising clinical activity of the selective SYK inhibitor entospletinib in patients with high expressing HOXA9/MEIS1 acute leukemias. […] 7; Detection; Luminescence; ViewLux plate reader (PerkinElmer). […] 1. Quantitative high-throughput screening (qHTS) of small molecule compounds was conducted on naive SYKi MV4-11 cell line. […] 7. Luminescence was measured on a ViewLux plate reader (PerkinElmer).
Records with an inconclusive call do not appear. Activity calls are given as the source filed them. The call rests on the fitted dose curve; in most records, active means well fitted cell-killing curve with a large enough effect; inconclusive means small, poorly fitted or top-dose-only effect, or effect the other way; inactive means no such curve, though single readings can be large or run the other way.
measured.parameter: Potency

[[record]]
compound = "O=C(NS(=O)(=O)c1ccc(Br)s1)c1ccc(Cl)cc1Cl"
experimental_value = "7.31 µM (active)"

[[record]]
compound = "CN1c2cc(O)c(N=NC(N)=O)cc2CC1S(=O)(=O)O (stereo not drawn)"
experimental_value = "inactive"

[[record]]
compound = "CC(C)(C)NCC(O)c1ccc(O)c(CO)c1 (stereo not drawn)"
experimental_value = "inactive"

[[record]]
compound = "C=C1CC[C@@H]2[C@](C)(CO)[C@H](O)CC[C@@]2(C)[C@@H]1C/C=C1/C(=O)OCC1O (stereo partly drawn)"
experimental_value = "2.91 µM (active)"


query: Query: Potency; subject: `CC(=O)N[C@H]1[C@H](O[C@@H]2c3ccc(c(Cl)c3)Oc3cc4cc(c3O[C@@H]3O[C@H](CO)[C@@H](O)[C@H](O)[C@H]3NC(=O)CCCCCCCC(C)C)Oc3ccc(cc3Cl)C[C@H]3NC(=O)[C@H](N)c5ccc(O)c(c5)Oc5cc(O)cc(c5)[C@H](NC3=O)C(=O)N[C@H]4C(=O)N[C@H]3C(=O)N[C@@H]2C(=O)N[C@@H](C(=O)O)c2cc(O)cc(O[C@H]4O[C@H](CO)[C@@H](O)[C@H](O)[C@@H]4O)c2-c2cc3ccc2O)O[C@H](CO)[C@@H](O)[C@@H]1O`
result: inactive

query: Query: Potency; subject: C[C@@H]1COCCN1c1cc(C2(S(C)(=N)=O)CC2)nc(-c2ccnc3[nH]ccc23)n1 (stereo partly drawn)
result: 1.48 µM (active)

query: Query: Potency; subject: `CN[C@H](C(=O)N[C@H](C(=O)N(C)[C@H](/C=C(\C)C(=O)O)C(C)C)C(C)(C)C)C(C)(C)c1ccccc1`
result: inactive

query: Query: Potency; subject: `CC(=O)c1ccc(O[C@@H]2O[C@H](CO[C@@H]3OC[C@@H](O)[C@H](O)[C@H]3O)[C@@H](O)[C@H](O)[C@H]2O)cc1`
result: inactive

====

test.protocol: Viability qHTS for spleen associated tyrosine kinase inhibitor (SYKi) drug resistant MV4-11 cells (AID 1963824); note: nearly all actives have a fitted effect of over 35% in size; note: potency is the fitted concentration of half-maximal effect
condition.context: SYKi-resistant MV4-11 viability, CellTiter-Glo, 72 h; series mostly up to 45 µM
Records with an inconclusive call do not appear. Active and inactive are the calls of the source. Calls come from the whole dose curve; as a rule, active = well fitted cell-killing curve with a large enough effect; inconclusive = small, poorly fitted or top-dose-only effect, or effect the other way; inactive = no such curve, though single readings can be large or run the other way.
measured.parameter: Potency

These recorded examples may help you get a feel for the data.
[[record]]
molecule = "O=C(O)c1cc(=O)c2ccccc2o1"
experimental_value = "inactive"

[[record]]
molecule = "C/C=C(/C)C(=O)O[C@H]1C(C)=CC23C(=O)C(C=C(CO)[C@@H](O)[C@]12O)[C@H]1[C@@H](C[C@H]3C)C1(C)C (some centres undefined)"
experimental_value = "0.0083 µM (active)"

[[record]]
molecule = "Cc1[nH]c(=O)c(C#N)cc1-c1ccncc1"
experimental_value = "inactive"

[[record]]
molecule = "CC(C)Oc1ccc(-c2nn([C@@H](C)c3oc4ccc(F)cc4c(=O)c3-c3cccc(F)c3)c3ncnc(N)c23)cc1F"
experimental_value = "11.8 µM (active)"

[[record]]
molecule = "CN1CCN(c2ncc(-c3cc(Cl)cc(Cl)c3Cl)c(N)n2)CC1"
experimental_value = "16.6 µM (active)"


query: Query: Potency; subject: `CC(C)=CCc1c(O)cc2oc3cc(C)cc(O)c3c2c1C`
result: 23.1 µM (active)

query: Query: Potency; subject: `COCC(=O)O[C@]1(CCN(C)CCCc2nc3ccccc3[nH]2)CCc2cc(F)ccc2[C@@H]1C(C)C`
result: 13.3 µM (active)

query: Query: Potency; subject: `CCN(CC)CCNc1ccc(CO)c2sc3ccccc3c(=O)c12`
result: 3.76 µM (active)

query: Query: Potency; subject: Cc1ccccc1OCC(O)CO (centres undefined)
result: inactive

query: Query: Potency; subject: `C[C@H]1NCc2cc(-c3ccc4c(=O)c(C(=O)O)cn(C5CC5)c4c3OC(F)F)ccc21`
result: inactive

query: Query: Potency; subject: `O=C(O)COCCN1CCN([C@H](c2ccccc2)c2ccc(Cl)cc2)CC1`
result: inactive

query: Query: Potency; subject: `Cc1ccc(C(=O)N(CCCN)[C@@H](c2oc3cc(Cl)ccc3c(=O)c2Cc2ccccc2)C(C)C)cc1`
result: 0.0083 µM (active)

query: Query: Potency; subject: `COc1ccc2nc3ccc(OC)cc3c(SCCCN)c2c1`
result: 2.31 µM (active)

query: Query: Potency; subject: CC1CNc2c(cccc2S(=O)(=O)N[C@@H](CCCN=C(N)N)C(=O)N2CC[C@@H](C)C[C@@H]2C(=O)O)C1 (some centres undefined)
result: inactive

query: Query: Potency; subject: `CC(C)c1cc(CNc2nc(Nc3cc(C4CC4)[nH]n3)cc(N3CCN(C)CC3)n2)on1`
result: 0.0231 µM (active)

query: Query: Potency; subject: `O=C(Cc1ccc(-c2ccccc2)cc1)NC1CCC1`
result: inactive

query: Query: Potency; subject: `CC(=O)N[C@@H](CCC(N)=O)C(=O)O`
result: inactive

query: Query: Potency; subject: `C=C(C)[C@@H]1CC[C@]2(C)CC[C@]3(C)[C@H](CC[C@@H]4[C@@]5(C)CC[C@H](O)C(C)(C)[C@H]5CC[C@]43C)[C@@H]12`
result: inactive

query: Query: Potency; subject: `O=C(O)Cn1nnc(-c2cc(N3CCC(Oc4cc(F)ccc4Br)CC3)no2)n1`
result: 0.103 µM (active)
